- System: Mycobacterium tuberculosis
- EXPERIMENTAL_DETAILS: Antimycobacterial activity of compound against Mycobacterium tuberculosis H37Rv at 6.25 ug/mL
- Format: functional

# STRUCTURE_SMILES_STRING, UNIT_TEXT, inhibition at 6.25 µg/mL
measured = [
    ("CC(=O)Nc1ccc(NC(=O)N/N=C/c2ccccc2[N+](=O)[O-])cc1", "%", 90),
    ("CC(=O)Nc1ccc(NC(=O)N/N=C/c2ccc(N(C)C)cc2)cc1", "%", 2),
    ("CC(=O)Nc1ccc(NC(=O)N/N=C/c2ccc([N+](=O)[O-])cc2)cc1", "%", 95),
]
